Form field: T/C (one value per entry).
Test system: BDF1 mice, Adenocarcinoma 755 s.c., tumor weight T/C
Assay: NCI In Vivo Anticancer Drug Screen. Data for tumor model Adenocarcinoma 755 (subcutaneous) in B6D2F1 (BDF1) mice
Settings: endpoint: mean tumor weight; dose: 30.0 mg/kg/injection; schedule: Q01DX011 (ip); vehicle: carboxymethylcellulose (CMC); higher = larger tumour

T/C of Cc1cc(C)c(/C=N/Nc2nc3c(c(=O)n(C)c(=O)n3C)n2C)c(C)c1 , assay on BDF1 mice, Adenocarcinoma 755 s.c., tumor weight T/C, is 68 % of control

T/C of CN(C)c1nc(Cl)nc2c1nc(Cl)n2C1CCCCO1 (stereo unspecified) , assay on BDF1 mice, Adenocarcinoma 755 s.c., tumor weight T/C, is 102 % of control

T/C of Nc1[nH]c(=O)[nH]c(=O)c1C(=O)CCl , assay on BDF1 mice, Adenocarcinoma 755 s.c., tumor weight T/C, is 77 % of control

###

System: BDF1 mice, Adenocarcinoma 755 s.c., tumor weight T/C
Experiment: NCI In Vivo Anticancer Drug Screen. Data for tumor model Adenocarcinoma 755 (subcutaneous) in B6D2F1 (BDF1) mice
Details: endpoint: mean tumor weight; dose: 60.0 mg/kg/injection; schedule: Q01DX011 (ip); vehicle: saline; higher = larger tumour
Form field: T/C (one value per entry).

Reference set (3 entries):
1) Cn1c(N)nc2c(ncn2C2OC(CO)C(O)C2O)c1=O (stereo not drawn) :: 94 % of control
2) N#[N+]c1cn(C2CC(O)C(CO)O2)c(=O)[nH]c1=O (stereo not drawn) :: 118 % of control
3) CCOC(C)C(/C=N/NC(N)=S)=NNC(N)=S (stereo not drawn) :: 117 % of control

The reported T/C of the compound Nc1c(Br)cc2c(c1Br)Cc1cc(Br)ccc1-2 was 24 % of control

The reported T/C of the compound C[N+](C)(C)c1ncnc2c1ncn2C1OC(CO)C(O)C1O (stereo not drawn) was 109 % of control

The reported T/C of the compound CC1CCC(n2cnc3c(N)ncnc32)O1 (stereo not drawn) was 119 % of control

The reported T/C of the compound O=C1N(Cl)C(=O)C(c2ccc(Cl)cc2)(c2ccc(Cl)cc2)N1Cl was 62 % of control

The reported T/C of the compound Cn1cnc2c(C(F)(F)F)nc(Cl)nc21 was 91 % of control

###

Form field: T/C (one value per entry).
Tested on: BDF1 mice, Adenocarcinoma 755 s.c., tumor weight T/C
Assay: NCI In Vivo Anticancer Drug Screen. Data for tumor model Adenocarcinoma 755 (subcutaneous) in B6D2F1 (BDF1) mice
Details: endpoint: mean tumor weight; dose: 100.0 mg/kg/injection; schedule: Q01DX011 (ip); vehicle: saline; higher = larger tumour

1) CNc1ncnc2c1ncn2C1CCCO1 (stereo unspecified) :: 86 % of control
2) CN(C)N=Nc1ccc(C(=O)NC(CCC(=O)NN)C(=O)NN)cc1 (stereo unspecified) :: 92 % of control
3) C=CCSc1ncnc2c1ncn2C1OC(CO)C(O)C1O (stereo unspecified) :: 11 % of control
4) O=C(Nc1ncnc2nc[nH]c12)C(Cl)Cl :: 77 % of control

// moving on: another record for T/C
The reported T/C of the compound Nc1c(Br)cc2c(c1Br)Cc1cc([N+](=O)[O-])ccc1-2 was 63 % of control
